B1: Zinc finger homeobox protein 3, residues 2147 to 2202; numbered along this chain, Q15911 (parent)
chain: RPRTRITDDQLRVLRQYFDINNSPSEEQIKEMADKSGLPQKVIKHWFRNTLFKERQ

- Variants of: B1
- assayProcedure: abundance fitness (aPCA) (normalised: wild type 0, dead -1); higher = more abundant; growth selection in yeast, the domain comes from the species named
- runConditions: Homo sapiens
quantityKind: abundance fitness
Write the value as a bare number.

Prompt: Could you tell me which abundance fitness is on file for `K41S` ?
Response: -0.02

Prompt: Could you do the same for `R15Y` , please?
Response: -0.127

Prompt: Proceed to `G37S`
Response: -0.151

Prompt: Query `G37M` next
Response: -0.341

Prompt: Try this variant too: `Q10L`
Response: -0.453

Prompt: Next entry: `Q56T`
Response: -0.298

Prompt: Also need `I6W` , thanks.
Response: -0.477

Prompt: And `I43P` ?
Response: -1.05

Prompt: Okay, and `L14P` ?
Response: -1.05

Prompt: And then `K41V` , what is it?
Response: -0.108

Prompt: Can you handle `Q40N` next?
Response: 0.102

Prompt: Now consider `I43F` .
Response: -0.864

Prompt: Continue with `D34I`
Response: -0.088

Prompt: `D19C` , same question.
Response: -0.094

Prompt: Try `N21W` next.
Response: -0.38
